- Study system: androgen receptor AR (Homo sapiens, UniProt P10275, T878A)
- Construct: degradation effect of compounds on androgen receptor AR in LNCaP cells; endogenous in cells; host or cells: LNCaP
- Sequence (P10275 whole entry T878A): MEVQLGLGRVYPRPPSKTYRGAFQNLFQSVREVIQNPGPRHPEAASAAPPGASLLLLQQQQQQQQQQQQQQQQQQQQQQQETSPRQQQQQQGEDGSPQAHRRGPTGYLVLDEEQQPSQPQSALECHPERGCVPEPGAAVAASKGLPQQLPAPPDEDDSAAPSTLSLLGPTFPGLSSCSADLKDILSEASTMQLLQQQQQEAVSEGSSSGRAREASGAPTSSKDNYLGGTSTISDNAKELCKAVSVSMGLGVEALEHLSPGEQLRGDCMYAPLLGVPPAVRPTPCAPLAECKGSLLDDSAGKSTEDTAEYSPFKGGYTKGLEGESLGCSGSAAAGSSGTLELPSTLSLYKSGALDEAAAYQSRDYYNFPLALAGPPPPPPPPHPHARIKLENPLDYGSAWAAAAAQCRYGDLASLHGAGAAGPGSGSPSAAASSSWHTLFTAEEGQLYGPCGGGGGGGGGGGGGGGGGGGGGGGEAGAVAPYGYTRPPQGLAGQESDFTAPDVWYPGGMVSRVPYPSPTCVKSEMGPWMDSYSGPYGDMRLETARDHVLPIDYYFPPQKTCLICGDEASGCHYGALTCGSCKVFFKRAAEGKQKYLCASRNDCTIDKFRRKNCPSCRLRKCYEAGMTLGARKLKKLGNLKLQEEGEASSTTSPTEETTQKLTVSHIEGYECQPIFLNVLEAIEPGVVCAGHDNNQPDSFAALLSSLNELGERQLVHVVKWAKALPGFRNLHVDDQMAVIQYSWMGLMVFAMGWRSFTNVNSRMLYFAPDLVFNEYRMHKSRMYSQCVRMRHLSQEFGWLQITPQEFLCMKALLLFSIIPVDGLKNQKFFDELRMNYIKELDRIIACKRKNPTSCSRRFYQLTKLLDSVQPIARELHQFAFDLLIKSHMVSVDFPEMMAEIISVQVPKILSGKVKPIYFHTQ
- Protocol: AR degradation in LNCaP cells by ICW method
- Type: cell-based
- Applied conditions: 24 hours
- Method: Experimental purpose: To test the degradation effect of compounds on androgen receptor AR in LNCaP cells by ICW method. Day 1 • 1. The cell culture medium, 0.025% trypsin, and phosphate buffered saline were preheated in a 37° C. water bath. • 2. Cells digested by trypsin were centrifuged at 1000 rpm for 5 minutes. The supernatant was discarded, and then the cells were resuspended in fresh culture medium. • 3. […]
Counter-ions that a name gives are not always drawn.
Parameter measured: DC50 (nM)
One number for each entry, in nM.

Please review the entries below; each comes with its answer.
| Compound | DC50 / nM |
| --- | --- |
| CC1(C)C(=O)N(c2ccc(C#N)c(C(F)(F)F)c2)C(=S)N1c1ccc(OCCN2CCN(CC(=O)Nc3ccc4c(C5CCC(=O)NC5=O)coc4c3)CC2)c(F)c1 (stereo not shown) | 8.9 |
| CC1(C)C(=O)N(c2ccc(C#N)c(C(F)(F)F)c2)C(=S)N1c1ccc(OCCN2CCN(CC(=O)Nc3cccc4c3ccc3occ(C5CCC(=O)NC5=O)c34)CC2)c(F)c1 (stereo not shown) | 10.1 |
| N#Cc1ccc(O[C@H]2CC[C@H](NC(=O)c3ccc(N4CCC(CN5CCN(c6ccc7c(ccc8occ(C9CCC(=O)NC9=O)c87)c6)CC5)CC4)nn3)CC2)cc1Cl (stereo partly shown) [Hydrochloride of WX014] | 22.4 |

Now for another entry.
For reference, reported DC50 for N#Cc1ccc(O[C@H]2CC[C@H](NC(=O)c3ccc(N4CCC(CN5CCN(c6cccc7c6ccc6occ(C8CCC(=O)NC8=O)c67)CC5)CC4)nn3)CC2)cc1Cl (stereo partly shown) [Hydrochloride of WX015] stands at 13.7
